assay: Half life in Swiss albino mouse at 1 mg/kg, iv measured upto 24 hrs by LC/MS/MS analysis; format: ADME, organism-based; details: in vivo
Measurement Type: t1/2 (h)
Number only, in h; omit the unit.

Note to self: t1/2 recorded for `CCN1CCN(Cc2ccc(NC(=O)c3ccc(C)c(Oc4ncnc5[nH]c(C)cc45)c3)cc2C(F)(F)F)CC1` was 2.94

Note to self: t1/2 recorded for `CCN1CCN(Cc2ccc(NC(=O)c3ccc(C)c(/C=C/c4cnc5[nH]ccc5c4OC)c3)cc2C(F)(F)F)CC1` was 4.66

Note to self: t1/2 recorded for `CCN1CCN(Cc2ccc(NC(=O)c3ccc(C)c(Oc4ncnc5[nH]ncc45)c3)cc2C(F)(F)F)CC1` was 0.87

Note to self: t1/2 recorded for `CCN1CCN(Cc2ccc(NC(=O)c3ccc(C)c(Oc4ccnc5[nH]ccc45)c3)cc2C(F)(F)F)CC1` was 2.03

Note to self: t1/2 recorded for `CCN1CCN(Cc2ccc(NC(=O)c3ccc(C)c(Oc4ncnc5[nH]ccc45)c3)cc2C(F)(F)F)CC1` was 2.33

---

Field: pIC50. Provide a value for each of the compounds that follow.
Molecular target: Mitogen-activated protein kinase kinase kinase 7 (Homo sapiens, UniProt O43318)
Sequence (O43318 whole entry): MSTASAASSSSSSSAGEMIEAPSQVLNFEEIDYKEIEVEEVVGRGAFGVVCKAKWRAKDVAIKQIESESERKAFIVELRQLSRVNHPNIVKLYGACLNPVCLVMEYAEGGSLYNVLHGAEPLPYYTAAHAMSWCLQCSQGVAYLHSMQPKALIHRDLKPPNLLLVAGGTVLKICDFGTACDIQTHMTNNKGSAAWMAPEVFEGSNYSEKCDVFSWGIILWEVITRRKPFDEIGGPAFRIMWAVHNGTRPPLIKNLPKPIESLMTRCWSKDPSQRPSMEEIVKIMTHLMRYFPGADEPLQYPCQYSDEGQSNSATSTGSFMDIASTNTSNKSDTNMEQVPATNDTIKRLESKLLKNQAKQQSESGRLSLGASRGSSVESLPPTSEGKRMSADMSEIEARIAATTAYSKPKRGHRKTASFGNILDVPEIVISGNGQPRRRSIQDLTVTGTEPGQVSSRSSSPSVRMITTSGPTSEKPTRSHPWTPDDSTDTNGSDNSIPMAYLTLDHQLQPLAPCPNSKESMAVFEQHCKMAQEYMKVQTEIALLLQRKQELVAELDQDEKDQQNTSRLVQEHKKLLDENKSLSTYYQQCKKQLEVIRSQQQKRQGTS
Assay: Inhibition of TAK1 (unknown origin) Lys2 labeling site by KiNativ Profiling analysis
Friendly reminder that pIC50 comes from taking -log10 of the concentration in mol/L.

Note to self: pIC50 recorded for `CCN1CCN(Cc2ccc(NC(=O)c3ccc(C)c(CCc4cnc5[nH]ccc5c4OC)c3)cc2C(F)(F)F)CC1` was 6.66

Note to self: pIC50 recorded for `Cc1ccc(C(=O)Nc2cc(N3CCN(C)CC3)cc(C(F)(F)F)c2)cc1Oc1ncnc2[nH]ccc12` was 6.33

Note to self: pIC50 recorded for `CNc1cc(Oc2cc(C(=O)Nc3cc(N4CCN(C)CC4)cc(C(F)(F)F)c3)ccc2C)ncn1` was 5.57

Note to self: pIC50 recorded for `CCN1CCN(Cc2ccc(NC(=O)c3ccc(C)c(Oc4ncnc5cc(OC)c(OC)cc45)c3)cc2C(F)(F)F)CC1` was 6.89

Note to self: pIC50 recorded for `CCN1CCN(Cc2ccc(NC(=O)c3ccc(C)c(Oc4ncnc5[nH]c(C)cc45)c3)cc2C(F)(F)F)CC1` was 7.39

Note to self: pIC50 recorded for `CCN1CCN(Cc2ccc(NC(=O)c3ccc(C)c(Oc4ccnc5[nH]ccc45)c3)cc2C(F)(F)F)CC1` was 6.83

Note to self: pIC50 recorded for `Cc1cn(-c2cc(NC(=O)c3ccc(C)c(Oc4ccnc5[nH]ccc45)c3)cc(C(F)(F)F)c2)cn1` was 5.35

Note to self: pIC50 recorded for `CCN1CCN(Cc2ccc(NC(=O)c3ccc(OC)c(Oc4ncnc5[nH]ccc45)c3)cc2C(F)(F)F)CC1` was 6.53

Note to self: pIC50 recorded for `CCN1CCN(Cc2ccc(NC(=O)c3ccc(C)c(Oc4ncnc5[nH]ccc45)c3)cc2C(F)(F)F)CC1` was 7.35

Note to self: pIC50 recorded for `CCN1CCN(Cc2ccc(NC(=O)c3ccc(C)c(Oc4ccnc(NC)n4)c3)cc2C(F)(F)F)CC1` was 6.78

Note to self: pIC50 recorded for `CCN1CCN(Cc2ccc(NC(=O)c3ccc(C)c(OCc4cnc5[nH]ccc5c4OC)c3)cc2C(F)(F)F)CC1` was 6.82

Note to self: pIC50 recorded for `CCN1CCN(Cc2ccc(NC(=O)c3cccc(Oc4ccnc5[nH]ccc45)c3)cc2C(F)(F)F)CC1` was 6.92

Note to self: pIC50 recorded for `CCN1CCN(Cc2ccc(NC(=O)c3ccc(C)c(/C=C/c4cnc5[nH]ccc5c4OC)c3)cc2C(F)(F)F)CC1` was 7.39

Note to self: pIC50 recorded for `CCN1CCN(Cc2ccc(NC(=O)c3ccc(C)c(Oc4ncnc5[nH]ncc45)c3)cc2C(F)(F)F)CC1` was 7.12
